Data origin: ChEMBL document CHEMBL1629415

- Test system: MCF7
- Assay details: Cytotoxicity against human MCF7 cells after 48 hrs by MTT assay
- Assay type: functional, cell-based
- Condition info: MCF7, 48 h
Parameter measured: EC50 (µg/mL)
# unit: µg/mL | format: bare number

CN(C1=C(Cl)C(=O)c2ccccc2C1=O)c1ccccc1 1.2
O=C1C=C(Nc2ccccc2)C(=O)c2ccccc21 2.6

Task: Request body: readout EC50, system MCF7, query `O=C1C(Cl)=C(Nc2ccccc2)C(=O)c2ccccc21` . Return the value.
Result: 6.3

Task: Quick check: EC50 on MCF7, item `CN(C1=CC(=O)c2ccccc2C1=O)c1ccccc1` ?
Result: 7.8

Task: Recorded EC50 for `O=C1C(Cl)=C(Nc2ccc(O)cc2)C(=O)c2ccccc21` with MCF7, please?
Result: 2.8

====

# logP per record follows
- Assay details: Lipophilicity, log P of the compound
- Format: physicochemical
- Condition info: octanol/water; read-out: logP
Reply: number alone, nothing else.

Cc1ccccc1NC1=C(Cl)C(=O)c2ccccc2C1=O 2.08

Okay, now this compound:
Task: What does the data say about its logP? Entry: `COc1ccc(NC2=CC(=O)c3ccccc3C2=O)cc1`
Result: 1.43

====

- Tested on: MCF7
- Assay details: Cytotoxicity against human MCF7 cells after 48 hrs by MTT assay
- Type: functional, cell-based
- Condition info: MCF7, 48 h
Parameter measured: EC50 (µg/mL)
Provide the reading as a plain figure in µg/mL.

COc1ccc(OC)c(NC2=C(Cl)C(=O)c3ccccc3C2=O)c1 4.6
Cc1ccccc1NC1=C(Cl)C(=O)c2ccccc2C1=O 4.9
O=C1C=C(Nc2ccc(O)cc2)C(=O)c2ccccc21 0.8
Cc1ccccc1NC1=CC(=O)c2ccccc2C1=O 0.8
COc1ccc(OC)c(NC2=CC(=O)c3ccccc3C2=O)c1 1.2

Task: Would you mind telling me what EC50 value was observed for `COc1ccc(NC2=CC(=O)c3ccccc3C2=O)cc1` ?
Result: 3.7

====

Items are presented alongside their recorded logP.
- Assay details: Lipophilicity, log P of the compound
- Type: physicochemical
- Condition info: octanol/water; read-out: logP
Provide a numeric answer; units are not to be included.

COc1ccc(OC)c(NC2=C(Cl)C(=O)c3ccccc3C2=O)c1 1.34
CN(C1=CC(=O)c2ccccc2C1=O)c1ccccc1 2.34
CN(C1=C(Cl)C(=O)c2ccccc2C1=O)c1ccccc1 2.38
O=C1C=C(Nc2ccc(O)cc2)C(=O)c2ccccc21 1.16
O=C1C=C(Nc2ccccc2)C(=O)c2ccccc21 1.55

Task: I have this molecule here, `COc1ccc(NC2=C(Cl)C(=O)c3ccccc3C2=O)cc1` , and I need its recorded logP.
Result: 1.46

Task: Entry under review: `Cc1ccccc1NC1=CC(=O)c2ccccc2C1=O` . Reported logP?
Result: 2.04

Task: Suppose we examine the molecule `COc1ccc(OC)c(NC2=CC(=O)c3ccccc3C2=O)c1` ; what logP value has been reported?
Result: 1.3

Task: May I ask what logP has been recorded for `O=C1C(Cl)=C(Nc2ccc(O)cc2)C(=O)c2ccccc21` ?
Result: 1.2
